Compiled notes: published IC50 values involving Poly [ADP-ribose] polymerase 1 (Homo sapiens).

As a guide, the following entries are already answered.
Compound: O=C(C1CCCC1)N1CCP(=O)(c2cc(Cc3n[nH]c(=O)c4ccccc34)ccc2F)CC1
IC50: 1 to 10 µM

Compound: O=C(CCc1nc2ccccc2c(=O)[nH]1)N[C@H]1CC[C@H](c2nnc(-c3cccnc3)o2)CC1
IC50: 10.8 µM

Compound: CN1CC2CC2(c2cnn3c2[nH]c2cc(F)cc(C(N)=O)c23)C1 (stereo not shown)
IC50: 0.001 to 0.1 µM

(Q) Would you please give the reported IC50 of O=c1[nH]c(C2=C[C@@H](N3CCN(c4ccc(F)cc4)CC3)CC2)nc2c1CC1(CC2)CC1 with Poly [ADP-ribose] polymerase 1 (Homo sapiens)?
(A) 5 to 500 µM
